B1: library; numbered along this chain (parent)
chain: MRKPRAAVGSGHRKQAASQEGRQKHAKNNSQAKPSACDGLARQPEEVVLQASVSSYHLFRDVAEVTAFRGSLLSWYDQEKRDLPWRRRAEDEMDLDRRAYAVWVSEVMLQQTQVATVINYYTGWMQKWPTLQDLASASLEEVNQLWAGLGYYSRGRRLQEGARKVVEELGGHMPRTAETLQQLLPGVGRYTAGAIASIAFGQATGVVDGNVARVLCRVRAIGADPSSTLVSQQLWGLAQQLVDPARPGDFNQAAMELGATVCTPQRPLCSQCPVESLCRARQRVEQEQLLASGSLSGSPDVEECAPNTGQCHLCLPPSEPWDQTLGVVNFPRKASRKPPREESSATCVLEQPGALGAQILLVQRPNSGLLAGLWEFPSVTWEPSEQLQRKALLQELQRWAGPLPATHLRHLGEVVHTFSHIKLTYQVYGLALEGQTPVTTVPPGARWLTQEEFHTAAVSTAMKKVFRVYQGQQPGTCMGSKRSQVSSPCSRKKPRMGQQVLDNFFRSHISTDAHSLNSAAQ

Variants of: B1
Assay: 8OG:A repair function score (normalized; synonymous = 0, nonsense = -1) (normalized log-likelihood score); higher = more repair activity (WT-like);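 note: cells sorted at 72 h after reporter transfection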
Conditions: with 8OG:A DNA repair reporter (GFP) in HEK-293 MUTYH KO cells
measure_name: 8OG:A repair function score

A selection of reference data follows.
1) G170V :: -0.31
2) A254M :: 0.317
3) L149W :: -1.46
4) A405E :: 0.199
5) G209F :: -0.839
6) V218K :: -1
7) Q426A :: -0.0345
8) Y190C :: -0.373

-- ask Specify measured 8OG:A repair function score for K492Y .
-- reply -0.0316

-- ask Answer with the recorded 8OG:A repair function score of H508D only.
-- reply -0.000798

-- ask Given P494S , respond with its 8OG:A repair function score.
-- reply -0.00543

-- ask Identify 8OG:A repair function score associated with the variant V362P
-- reply -0.881

-- ask Item E303K : provide 8OG:A repair function score
-- reply -0.0605

-- ask # return recorded 8OG:A repair function score for entry Q132R
-- reply 0.00437

-- ask For A391N , write its 8OG:A repair function score.
-- reply -0.196

-- ask Please give the documented 8OG:A repair function score of P299D
-- reply 0.0184

-- ask Tell me measured 8OG:A repair function score for V379L please.
-- reply -0.463

-- ask Specify measured 8OG:A repair function score for Q358D .
-- reply -0.342

-- ask Give the reported value of 8OG:A repair function score for this record: S335Y
-- reply -0.0347

-- ask Please indicate 8OG:A repair function score recorded for F505L
-- reply 0.0157

-- ask Respond only with 8OG:A repair function score recorded for M125Q
-- reply -0.33

-- ask For the variant P44L , give its measured 8OG:A repair function score value.
-- reply -0.133

Data origin: the supplement of paper PMC11908140
